- test.target: recombinant human 5-HT5A receptor (Homo sapiens)
- Sequence (P47898 whole entry): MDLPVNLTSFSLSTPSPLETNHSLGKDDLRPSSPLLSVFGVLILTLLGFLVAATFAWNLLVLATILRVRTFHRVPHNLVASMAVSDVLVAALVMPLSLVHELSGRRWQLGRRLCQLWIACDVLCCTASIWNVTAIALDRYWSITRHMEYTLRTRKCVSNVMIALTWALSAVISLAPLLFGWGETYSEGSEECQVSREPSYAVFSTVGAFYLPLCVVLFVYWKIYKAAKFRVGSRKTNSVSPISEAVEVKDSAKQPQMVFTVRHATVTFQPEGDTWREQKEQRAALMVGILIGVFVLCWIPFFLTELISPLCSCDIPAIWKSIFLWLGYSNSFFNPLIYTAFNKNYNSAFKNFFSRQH
- protocol.description: [3H]LSD radioligand binding assay, recombinant human 5-HT5A receptor in HEK-EBNA cell membranes
- setup.conditions: [3H]LSD approximately 1 nM; membranes from HEK-EBNA cells; Ki from IC50 by the Cheng-Prussoff equation
pKi: −log10 of the molar value.
property: pKi

compound | test.value
CC1NC(NCC(F)F)=Nc2ccc(Cl)c(Cl)c21 (stereo not shown) [Example 10] | 8.25

A = CC1NC(NC2CCC2)=Nc2ccc(Cl)c(Cl)c21 (stereo not shown) [Example 15]
B = CC1NC(N)=Nc2ccc(Cl)c(Cl)c21 (stereo not shown) [Example 8]
Lab notebook, comparison: A versus B , higher pKi goes to which? Please reply using the label of the selected record.
B

I = CC1NC(NCC(F)F)=Nc2cccc(Cl)c21 (stereo not shown) [Example 5]
II = CNC1=Nc2ccc(Cl)c(Cl)c2C(C)N1 (stereo not shown) [Example 9]
Lab notebook, comparison: I versus II , higher pKi goes to which? Please reply using the label of the selected record.
II

P = CNC1=Nc2cccc(Cl)c2C(C)N1 (stereo not shown) [Example 2]
Q = CC1NC(NCC2COCCO2)=Nc2ccc(Cl)c(Cl)c21 (stereo not shown) [Example 21]
R = CC1NC(N)=Nc2c(Cl)ccc(Cl)c21 (stereo not shown) [Example 23]
Rank the 3 compounds: largest pKi first, smallest last. Quick reminder: the answer is the labels in the order asked.
R, P, Q
(R: 8.23, P: 7.97, Q: 7.75)

I = CC(=O)NCCNC1=Nc2ccc(Cl)c(Cl)c2C(C)N1 (stereo not shown) [Example 16]
II = CC1NC(NC2CCC2)=Nc2cccc(Cl)c21 (stereo not shown) [Example 3]
III = CC1NC(N)=Nc2cccc(Cl)c21 (stereo not shown) [Example 1]
Number of compounds to sort: 3. Sort criterion: pKi, ascending. Quick reminder: the answer is the labels in the order asked.
II, I, III

A = COCCCNC1=Nc2ccc(Cl)c(Cl)c2C(C)N1 (stereo not shown) [Example 19]
B = CCCCCNC1=Nc2ccc(Cl)c(Cl)c2C(C)N1 (stereo not shown) [Example 18]
Lab notebook, comparison: A versus B , higher pKi goes to which? Please reply using the label of the selected record.
A
(A: 8.16, B: 7.86)

These data points were gathered from patent US7790732B2.
